- Assay Target: T1, bacterially produced recombinant murine La protein (rmLa) (murine, UniProt P32067 1-415)
- T1 construct: also called prokaryote-produced murine La protein
- T1 sequence (looked up): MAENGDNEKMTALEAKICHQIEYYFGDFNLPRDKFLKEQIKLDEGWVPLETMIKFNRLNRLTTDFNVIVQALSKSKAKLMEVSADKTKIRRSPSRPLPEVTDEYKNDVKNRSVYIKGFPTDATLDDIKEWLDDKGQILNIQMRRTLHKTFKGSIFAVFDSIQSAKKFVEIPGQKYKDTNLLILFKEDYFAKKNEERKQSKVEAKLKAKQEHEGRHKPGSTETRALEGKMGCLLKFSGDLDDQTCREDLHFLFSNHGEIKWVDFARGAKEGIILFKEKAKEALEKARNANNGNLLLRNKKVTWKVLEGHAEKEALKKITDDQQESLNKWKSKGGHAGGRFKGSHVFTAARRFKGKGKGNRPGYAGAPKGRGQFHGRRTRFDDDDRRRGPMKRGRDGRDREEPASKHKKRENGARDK
- Measurement Notes: immunoblot, bacterially produced rmLa
Measured Property: binding result

[[record]]
binder = "anti-La monoclonal antibody 27E (antibody, IgG2b, V domains shown) VH: VQLQESGAELARPGASVKLSCKASGYSFRSYGINWVKQRTGQGLEWIGEIYPGSGTTFYNEKFRGKATLTADKSSSTAYMQLKSLTSEDSAVYFCARHGGYPFYFDYWGQGTTLTVSS VL: DIVMTQSPAIMSASPGEKVTISCSASSSVSYMYWYQQKPGSSPKPWIYRTSNLASGVPARFSGSGSGTSYSLTISSMEAEDAATYYCQQYHSYPRTFGGGTKLEIKR"
recorded_measurement = "binds"


Cited source: patent US20130216544A1
